- assay name: osmotic lysis modulators in infected erythrocytes, primary screen, PSAC antagonist project, cell-based, P. falciparum Indochina, OD700, 3 h (AID 1156)
- condition: higher = more signal, called active from +8 up or from −8 down
assay endpoint: z-score
Answer with a number only.

compound | z-score
COc1cccc([C@H]2Oc3ccc(OC)cc3C(=NOC[C@@H](O)COCc3ccco3)[C@@H]2O)c1 | 0.135

Entry CSCC[C@@H]1NC(=O)CC=C[C@@H](C)COC(=O)[C@@H](C)COC1=O : reported z-score = ?
0.742

Entry CCOC(=O)[C@H](Cc1ccccc1)NC(=O)CCC1CC(OC(=O)NCCc2ccc(F)cc2)CC2(CCCC(COC(=O)NCc3ccccc3)O2)O1 (stereo partly drawn) : reported z-score = ?
-0.857

Entry CCOC(=O)[C@H](CC(C)C)NC(=O)CCC1CC(OC(=O)NCCc2ccc(F)cc2)CC2(CCCC(COC(=O)NCC3CCCCC3)O2)O1 (stereo partly drawn) : reported z-score = ?
0.107

Entry CCN1C(=O)[C@H]2[C@H]3[C@H](O)[C@H](O)CC(=NO[C@@H](C)c4cn([C@H](CO)Cc5ccccc5)nn4)[C@@H]3CC[C@H]2C1=O : reported z-score = ?
0.357

Entry CO[C@H]1COC(=O)[C@H](C)NC(=O)CC=C[C@@H](C)[C@H](OC)COC(=O)[C@@H](OCc2ccccc2)C=C[C@@H]1C : reported z-score = ?
0.912

Entry CC(CCN1CCCCc2nc(C)c(C)cc21)=NOC[C@@H](O)COCc1ccco1 : reported z-score = ?
0.876

Entry CCCCc1nc2c(c3c1C[C@H](C)OC3)CN(CCOc1ccccc1)CC2 : reported z-score = ?
0.128

Where do these numbers come from? They come from PubChem BioAssay.
